Provide the reported remaining activity at 10 µM of each item.
molecular target: DYRK1B (Homo sapiens); assay: Protein kinase assay ([γ-33P]-ATP, RS peptide substrate), DYRK1B; format: biochemical; conditions: 10 µM compound, compared to controls; read-out: Residual Activity at 10 µM DYRK 1B
Sequence (Q9Y463 whole entry): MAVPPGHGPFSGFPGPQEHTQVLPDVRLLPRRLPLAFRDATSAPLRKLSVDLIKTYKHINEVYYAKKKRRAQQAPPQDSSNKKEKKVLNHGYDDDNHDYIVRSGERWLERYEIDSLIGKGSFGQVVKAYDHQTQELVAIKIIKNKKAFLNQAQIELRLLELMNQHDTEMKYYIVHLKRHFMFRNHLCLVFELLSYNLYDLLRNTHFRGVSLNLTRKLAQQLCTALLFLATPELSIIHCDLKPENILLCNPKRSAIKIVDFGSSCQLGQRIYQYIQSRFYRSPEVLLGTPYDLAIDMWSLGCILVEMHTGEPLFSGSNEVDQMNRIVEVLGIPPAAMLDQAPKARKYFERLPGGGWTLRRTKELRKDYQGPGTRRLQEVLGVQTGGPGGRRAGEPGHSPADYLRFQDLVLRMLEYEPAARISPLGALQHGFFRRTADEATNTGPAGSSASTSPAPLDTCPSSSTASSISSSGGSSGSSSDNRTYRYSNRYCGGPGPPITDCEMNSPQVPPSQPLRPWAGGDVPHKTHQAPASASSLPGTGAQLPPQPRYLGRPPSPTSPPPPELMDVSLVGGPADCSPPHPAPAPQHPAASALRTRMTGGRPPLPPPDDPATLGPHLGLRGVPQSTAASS
Numbers only, in %.

// worked examples, remaining activity at 10 µM included
1) N#Cc1cn(Cc2ccccc2)c2c(Cl)cccc12 [Compound 13a] ... 78
2) Cn1cc(C#N)c2cccc(Cl)c21 [Compound 13c] ... 47
3) Cc1cccc2c(C#N)c(-c3ccccc3)[nH]c12 ... 74

Alright, here's another molecule for you.
// lookup remaining activity at 10 µM for N#Cc1c(-c2ccc(Cl)cc2)[nH]c2c(I)cccc12 79
